The origin of these recorded values is ChEMBL document CHEMBL5724914.

Conditions: human gut metagenome, 24 h, 2 µM; also: call rule not given here

>  <Compound>
CCN1CCCC1CNC(=O)c1cc(S(N)(=O)=O)ccc1OC (stereo not drawn) [SULPIRIDE]

>  <Bacterial Biotransformation>
Compound NOT metabolized

$$$$
>  <Compound>
Cc1nc2n(c(=O)c1CCN1CCC(c3noc4cc(F)ccc34)CC1)CCCC2

>  <Bacterial Biotransformation>
Compound metabolized

$$$$
>  <Compound>
CCCCCCOC(=O)/N=C(/N)c1ccc(NCc2nc3cc(C(=O)N(CCC(=O)OCC)c4ccccn4)ccc3n2C)cc1.CS(=O)(=O)O [DABIGATRAN ETEXILATE MESYLATE]

>  <Bacterial Biotransformation>
Compound NOT metabolized

$$$$
>  <Compound>
CN(C)CCc1c[nH]c2ccc(Cn3cncn3)cc12.O=C(O)c1ccccc1 [RIZATRIPTAN BENZOATE]

>  <Bacterial Biotransformation>
Compound NOT metabolized

$$$$
>  <Compound>
COc1ccc2[nH]c([S+]([O-])Cc3ncc(C)c(OC)c3C)nc2n1 (stereo not drawn)

>  <Bacterial Biotransformation>
Compound NOT metabolized

$$$$
>  <Compound>
CCC(COC(=O)c1cc(OC)c(OC)c(OC)c1)(c1ccccc1)N(C)C.O=C(O)/C=C\C(=O)O (stereo not drawn)

>  <Bacterial Biotransformation>
Compound NOT metabolized

$$$$
>  <Compound>
Br.CN(C)CCCC1(c2ccc(F)cc2)OCc2cc(C#N)ccc21 (stereo not drawn) [CITALOPRAM HYDROBROMIDE]

>  <Bacterial Biotransformation>
Compound metabolized

$$$$
>  <Compound>
CCOC(=O)[C@H](CCc1ccccc1)N[C@H]1CCc2ccccc2N(CC(=O)O)C1=O

>  <Bacterial Biotransformation>
Compound metabolized

$$$$

---

Test: The drug is tested on WLS-052 corresponding to human gut metagenome with ENA study accession number: PRJEB37062 and ENA sample accession number: ERS12561747 for biotransformation under anaerobic condition. The drug concentrations were measured over 9 timepoints collected between 0 and 24 hours of incubation by liquid-chromatography-coupled mass spectrometry (LC–MS)
Settings: 2 µM

>  <Compound>
Nc1c2c(nc3ccccc13)CCCC2 [TACRINE]

>  <Bacterial Biotransformation>
Compound NOT metabolized

$$$$
>  <Compound>
Cc1ccc(S(=O)(=O)NC(=O)NN2CCCCCC2)cc1 [TOLAZAMIDE]

>  <Bacterial Biotransformation>
Compound metabolized

$$$$
>  <Compound>
CNC(=C[N+](=O)[O-])NCCSCc1ccc(CN(C)C)o1 [RANITIDINE]

>  <Bacterial Biotransformation>
Compound NOT metabolized

$$$$
>  <Compound>
C#C[C@]1(O)CC[C@H]2[C@@H]3CCC4=CC(=O)CC[C@@H]4[C@H]3CC[C@@]21CC [LEVONORGESTREL]

>  <Bacterial Biotransformation>
Compound metabolized

$$$$
>  <Compound>
CC(CN(C)C)CN1c2ccccc2CCc2ccccc21.O=C(O)/C=C\C(=O)O (centres undefined) [TRIMIPRAMINE MALEATE]

>  <Bacterial Biotransformation>
Compound NOT metabolized

$$$$
>  <Compound>
Cc1ccc(-c2nc3ccc(C)cn3c2CC(=O)N(C)C)cc1 [ZOLPIDEM]

>  <Bacterial Biotransformation>
Compound NOT metabolized

$$$$
>  <Compound>
Cc1ccc(-c2cc(C(F)(F)F)nn2-c2ccc(S(N)(=O)=O)cc2)cc1 [CELECOXIB]

>  <Bacterial Biotransformation>
Compound metabolized

$$$$
>  <Compound>
OC(Cn1cncn1)(Cn1cncn1)c1ccc(F)cc1F [FLUCONAZOLE]

>  <Bacterial Biotransformation>
Compound NOT metabolized

$$$$
>  <Compound>
COc1ccc2[nH]c([S+]([O-])Cc3ncc(C)c(OC)c3C)nc2n1 (centres undefined) [TENATOPRAZOLE]

>  <Bacterial Biotransformation>
Compound metabolized

$$$$
